Consider the following compounds; for each one, report its INHIBITION.
Tested on: Plasmodium berghei
Assay: Screen against P. berghei liver stage (PbLuc), transformed with Luciferase, at 10uM
Type: functional, HepG2
Conditions: tested at 10 uM
The campaign covered roughly 69,000 compounds. About 8,600 (12%) showed an effect of 50% or more. Many of the other results were omitted from the sample, so strong results are more common in it than they were.

Observe how each entry below is paired with its result.
- chemical.smiles: "CC(C)(C)c1ccc(S(=O)(=O)CCNC(=O)c2cnccn2)cc1"
  system.tested: "Plasmodium berghei"
  INHIBITION: "26.8%"
- chemical.smiles: "O=C(NCCNc1cc(N2CCCC2)ncn1)c1cnccn1"
  system.tested: "Plasmodium berghei"
  INHIBITION: "19.2%"
- chemical.smiles: "Cc1ncc(-c2ccnc(N[C@@H](C)CO)n2)c(C2CCCCC2)n1"
  system.tested: "Plasmodium berghei"
  INHIBITION: "47.1%"

Hi there! I need INHIBITION for each item below, if you can.
1. O=C(CCNC(=O)c1cnccn1)Nc1ncc[nH]1
2. O=C(NCc1csc(Br)c1)c1cnccn1
3. Cc1nn(C)c(N(C)C)c1CNCCOc1ccc2c(c1)OCO2
4. COC(=O)[C@H](CCSC)NC(=O)Cc1c(C)nn(-c2ccccc2)c1C

Found:
1: 59.1%; 2: -43.6%; 3: -20.893%; 4: 5.58%
